These data points were gathered from patent US9688710B2.

- TESTED_SYSTEM: Human sodium/glucose co-transporter type 1 (SGLT1) (Homo sapiens (Human), UniProt P13866)
- Sequence (P13866 whole entry): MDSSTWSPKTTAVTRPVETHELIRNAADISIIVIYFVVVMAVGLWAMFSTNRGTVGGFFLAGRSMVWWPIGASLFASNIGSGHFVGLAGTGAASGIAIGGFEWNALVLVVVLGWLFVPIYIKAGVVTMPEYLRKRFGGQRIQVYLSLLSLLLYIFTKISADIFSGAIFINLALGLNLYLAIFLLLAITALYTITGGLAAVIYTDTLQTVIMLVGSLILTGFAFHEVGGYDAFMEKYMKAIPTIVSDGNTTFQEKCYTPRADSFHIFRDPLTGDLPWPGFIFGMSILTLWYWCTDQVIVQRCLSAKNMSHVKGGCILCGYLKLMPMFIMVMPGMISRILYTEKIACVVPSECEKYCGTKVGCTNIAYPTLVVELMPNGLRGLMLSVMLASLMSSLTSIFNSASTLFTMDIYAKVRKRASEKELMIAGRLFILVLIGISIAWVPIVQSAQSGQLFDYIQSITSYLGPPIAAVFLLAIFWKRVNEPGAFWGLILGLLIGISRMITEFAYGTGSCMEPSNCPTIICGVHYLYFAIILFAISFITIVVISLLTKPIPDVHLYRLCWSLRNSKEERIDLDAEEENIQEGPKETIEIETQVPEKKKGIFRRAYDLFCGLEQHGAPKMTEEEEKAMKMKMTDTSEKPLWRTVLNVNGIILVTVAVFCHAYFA
- EXPERIMENTAL_PROTOCOL: In vitro human SGLT1 inhibition assay (14C-AMG uptake)
- RUN_CONDITIONS: HEK293 cells expressing human HA-SGLT1, 14C-AMG uptake
MEASURED_METRIC: IC50

# return recorded IC50 for input CS[C@H]1O[C@@H](c2ccc(C)c(Cc3ccc(CCCCC(=O)NCCCC[C@H](N)C(=O)O)cc3)c2)[C@H](O)[C@@H](O)[C@@H]1O
< 0.1 µM

# return recorded IC50 for input CS[C@H]1O[C@@H](c2ccc(C)c(Cc3ccc(CCCCNCC(O)CO)cc3)c2)[C@H](O)[C@@H](O)[C@@H]1O (stereo partly drawn)
< 0.1 µM

# return recorded IC50 for input CCNC(=O)CCCOc1ccc(Cc2cc([C@@H]3O[C@H](SC)[C@@H](O)[C@H](O)[C@H]3O)ccc2Cl)cc1
< 0.1 µM

# return recorded IC50 for input CS[C@H]1O[C@@H](c2ccc(C)c(Cc3ccc(CCCC(=O)NC(C)(C)C(=O)O)cc3)c2)[C@H](O)[C@@H](O)[C@@H]1O
< 0.1 µM

# return recorded IC50 for input CS[C@H]1O[C@@H](c2ccc(C)c(Cc3ccc(CCCC(=O)NC4(C(=O)N5CCN(C)CC5)CCCC4)cc3)c2)[C@H](O)[C@@H](O)[C@@H]1O
< 0.01 µM

# return recorded IC50 for input CS[C@H]1O[C@@H](c2ccc(C)c(Cc3ccc(CCCCCNC(=O)NC(C)(C)C(N)=O)cc3)c2)[C@H](O)[C@@H](O)[C@@H]1O
< 0.1 µM

# return recorded IC50 for input CS[C@H]1O[C@@H](c2ccc(C)c(Cc3ccc(OCCCC(=O)N4CCN(C)CC4)cc3)c2)[C@H](O)[C@@H](O)[C@@H]1O
< 0.1 µM

# return recorded IC50 for input CS[C@H]1O[C@@H](c2ccc(C)c(Cc3ccc(OCCCC(=O)NC4(C(=O)N5CCN(C)CC5)CCCC4)cc3)c2)[C@H](O)[C@@H](O)[C@@H]1O
< 0.01 µM

# return recorded IC50 for input CS[C@H]1O[C@@H](c2ccc(C)c(Cc3ccc(CCCC(=O)NC(C)(C)C(=O)N4CCN(C(=O)OC(C)(C)C)CC4)cc3)c2)[C@H](O)[C@@H](O)[C@@H]1O
< 0.01 µM

# return recorded IC50 for input CS[C@H]1O[C@@H](c2ccc(Cl)c(Cc3ccc(OCC(=O)O)cc3)c2)[C@H](O)[C@@H](O)[C@@H]1O
< 1 µM

# return recorded IC50 for input CS[C@H]1O[C@@H](c2ccc(C)c(Cc3ccc(OCCCNC(C)(C)CO)cc3)c2)[C@H](O)[C@@H](O)[C@@H]1O
< 0.01 µM

# return recorded IC50 for input CS[C@H]1O[C@@H](c2ccc(C)c(Cc3ccc(CCCCNC(=O)NC(CO)(CO)CO)cc3)c2)[C@H](O)[C@@H](O)[C@@H]1O
< 0.01 µM

# return recorded IC50 for input CS[C@H]1O[C@@H](c2ccc(C)c(Cc3ccc(OCCCC(=O)NC(C)(CO)CO)cc3)c2)[C@H](O)[C@@H](O)[C@@H]1O
< 0.1 µM

# return recorded IC50 for input CS[C@H]1O[C@@H](c2ccc(Cl)c(Cc3ccc(OCCNC(=N)N)cc3)c2)[C@H](O)[C@@H](O)[C@@H]1O
< 0.01 µM

# return recorded IC50 for input CS[C@H]1O[C@@H](c2ccc(Cl)c(Cc3ccc(OCCNC(=O)C(C)(C)CO)cc3)c2)[C@H](O)[C@@H](O)[C@@H]1O
< 0.01 µM

# return recorded IC50 for input CS[C@H]1O[C@@H](c2ccc(C)c(Cc3ccc(CCCCNCC(C)(C)C(=O)N4CCN(C)CC4)cc3)c2)[C@H](O)[C@@H](O)[C@@H]1O
< 0.01 µM

# return recorded IC50 for input CS[C@H]1O[C@@H](c2ccc(C)c(Cc3ccc(OCCNCC(C)(C)C(N)=O)cc3)c2)[C@H](O)[C@@H](O)[C@@H]1O
< 0.01 µM

# return recorded IC50 for input CS[C@H]1O[C@@H](c2ccc(C)c(Cc3ccc(CCCCCC(=O)NC(CO)(CO)CO)cc3)c2)[C@H](O)[C@@H](O)[C@@H]1O
< 0.1 µM

# return recorded IC50 for input CS[C@H]1O[C@@H](c2ccc(C)c(Cc3ccc(CCCCCN)cc3)c2)[C@H](O)[C@@H](O)[C@@H]1O
< 0.1 µM

# return recorded IC50 for input CS[C@H]1O[C@@H](c2ccc(C)c(Cc3ccc(OCCNC4(C(N)=O)CCCC4)cc3)c2)[C@H](O)[C@@H](O)[C@@H]1O
< 0.1 µM

# return recorded IC50 for input CS[C@H]1O[C@@H](c2ccc(C)c(Cc3ccc(OCCCC(=O)NC(C)(C)C(=O)N4CCC(C)CC4)cc3)c2)[C@H](O)[C@@H](O)[C@@H]1O
< 0.01 µM

# return recorded IC50 for input CS[C@H]1O[C@@H](c2ccc(C)c(Cc3ccc(CCCCCCC(=O)NC(C)(C)CO)cc3)c2)[C@H](O)[C@@H](O)[C@@H]1O
< 0.1 µM

# return recorded IC50 for input CS[C@H]1O[C@@H](c2ccc(C)c(Cc3ccc(CCCCNC(=O)NC(C)(C)CO)cc3)c2)[C@H](O)[C@@H](O)[C@@H]1O
< 0.1 µM

# return recorded IC50 for input CCN(CC)CCCCc1ccc(Cc2cc([C@@H]3O[C@H](SC)[C@@H](O)[C@H](O)[C@H]3O)ccc2C)cc1
< 0.01 µM

# return recorded IC50 for input CS[C@H]1O[C@@H](c2ccc(Cl)c(Cc3ccc(OCCNC(=O)N4CCN(C)CC4)cc3)c2)[C@H](O)[C@@H](O)[C@@H]1O
< 0.01 µM

# return recorded IC50 for input CS[C@H]1OC(c2ccc(C)c(Cc3ccc(OCCNC(=O)N4CCN(C)CC4)cc3)c2)[C@H](O)[C@@H](O)[C@@H]1O (stereo partly drawn)
< 0.01 µM

# return recorded IC50 for input CS[C@H]1O[C@@H](c2ccc(Cl)c(Cc3ccc(OCC(=O)NC(CO)(CO)CO)cc3)c2)[C@H](O)[C@@H](O)[C@@H]1O
< 0.1 µM
